What GI50 was measured for each of the following?
tested on: RXF 393 renal; test: NCI tumour cell line growth inhibition, 48 h

State the recorded GI50 for every item in the following list.
1. Cc1cncc2cccc(S(=O)(=O)N3CCCNC[C@@H]3C)c12
2. CCOC(=O)Nc1ccc2nc(Sc3ccc(Cl)cc3)sc2c1
3. COC(=O)C1=C(C)NC(C)=C(C(=O)OC)C1c1ccccc1[N+](=O)[O-]
4. Nc1cc2ccncc2c2ccccc12

Reply:
1820 nM
2990 nM
36000 nM
10800 nM

----------
Give measured GI50 for each item. Keep answers brief.
system: SK-MEL-5 melanoma; experiment: NCI tumour cell line growth inhibition, 48 h

// solved cases for GI50 follow
CC(=O)[O-].CC(=O)[O-].CC(=O)[O-].CC(=O)[O-].CO.CO.CO.[Rh+2].[Rh+2].c1ccc(-c2ccccn2)nc1	> 100 µM
Clc1ccc2c(NCCNc3nc(Cl)nc4ccccc34)ccnc2c1	1.76 µM
S=C1NC2=C(CCOc3c2ccc2ccccc32)C(c2ccc(Cl)cc2)N1 (stereo not given)	20 µM
N#CSc1cc(-c2nc3ccccc3o2)ccc1N	11.1 µM

Then this compound:
Query: Reported GI50 for COc1ccc(C(=O)C(CN(C)C)c2ccccc2)cc1 (stereo not given) : what is it?
Reply: 4.22 µM

----------
system: SF-539 CNS; assay: NCI tumour cell line growth inhibition, 48 h
experimental.endpoint: GI50

Here's what some known entries look like.
N#CSc1cc(-c2nc3ccccc3o2)ccc1N	22400 nM
CCc1cc(Nc2nccc(-c3c(-c4ccc(OC)c(C(=O)Nc5c(F)cccc5F)c4)nc4ccccn34)n2)c(OC)cc1N1CCC(N2CCN(S(C)(=O)=O)CC2)CC1	> 100000 nM
CCC[CH2][Sn]1([CH2]CCC)[O]N=Cc2ccccc2[O]1	1170 nM
Clc1ccc2c(NCCNc3nc(Cl)nc4ccccc34)ccnc2c1	1600 nM
Fc1ccc(-c2ncn(C3CCNCC3)c2-c2ccnc(Oc3ccc(Oc4ccccc4)cc3)n2)cc1	4200 nM
c1cc[c]([Sn]([O]c2cccc3cccnc23)([c]2ccccc2)[c]2ccccc2)cc1	19.5 nM
COc1ccc2c(c1)/C(=N/OC(C)=O)c1c-2c(Nc2ccc(/C(C)=N/OC(C)=O)cc2)nc2ccccc12	> 100000 nM
CCN1CCN(c2nc(NNC(=O)c3cccc(OC)c3)nc(N3CCN(C(c4ccccc4)c4ccccc4)CC3)n2)CC1	1650 nM
COc1ccc(OC)c(/C=C/C(=O)c2ccc(SC)cc2)c1	2550 nM
Nc1cc2ccncc2c2ccccc12	13400 nM

I would be grateful if you could provide GI50 for each of the following entries.
1. O=C1c2ccccc2-c2c1c1ccccc1c(=O)n2CCCNCCO
2. Cn1cc(C2=C(c3cccc(Cl)c3)C(=O)NC2=O)c2ccccc21
3. CCN(CC)Cc1cc(Nc2c3ccc(Cl)cc3nc3c(C)cccc23)ccc1O
4. O=C(N/N=C\c1cc(Br)cc(Br)c1O)N/N=C/c1cc(Br)cc(Br)c1O
5. COc1cccc2c1C(=O)c1c(O)c3c(c(O)c1C2=O)C[C@@](O)(C(=O)CO)CC3OC1CC(NCCCCC(OC(C)=O)OC(C)=O)C(O)C(C)O1 (stereo not given in full)

Reply:
["578 nM", "> 25000 nM", "1730 nM", "1730 nM", "2.96 nM"]
